Provide the recorded Soybean plant response rating for the entries that follow.
System: soybean
Assay: Test B pre/postemergence soybean
Assay type: in vivo, Glycine max
Conditions: Rate 62 g/ha, Postemergence; scale 0 to 10 (0 no effect, 10 complete control)
Answers are plain numbers.

Here are 3 molecules together with their reported answers.
# input Quick check: Soybean plant response rating of CC(C)N(C(=O)n1oc(=O)n(CC(=O)N(C)C)c1=O)c1ccc(Cl)cc1 [Compound 477] ?
# output 1

# input // returns reported Soybean plant response rating for input CCN(C(=O)n1oc(=O)n(C2CCCCC2)c1=O)C1CCCCC1 [Compound 308]
# output 1

# input Report Soybean plant response rating for CC(C)N(C(=O)n1oc(=O)n(CC2=NOCC2)c1=O)c1ccc(F)cc1 [Compound 466] please.
# output 4

Let us move to another entry and its Soybean plant response rating.
# input For Cc1ccccc1-n1c(=O)on(C(=O)N(c2ccc(OC(F)(F)F)cc2)C(C)C)c1=O [Compound 300] , what is its reported Soybean plant response rating?
# output 1

Reference source: patent US6737383B1
